Target chain: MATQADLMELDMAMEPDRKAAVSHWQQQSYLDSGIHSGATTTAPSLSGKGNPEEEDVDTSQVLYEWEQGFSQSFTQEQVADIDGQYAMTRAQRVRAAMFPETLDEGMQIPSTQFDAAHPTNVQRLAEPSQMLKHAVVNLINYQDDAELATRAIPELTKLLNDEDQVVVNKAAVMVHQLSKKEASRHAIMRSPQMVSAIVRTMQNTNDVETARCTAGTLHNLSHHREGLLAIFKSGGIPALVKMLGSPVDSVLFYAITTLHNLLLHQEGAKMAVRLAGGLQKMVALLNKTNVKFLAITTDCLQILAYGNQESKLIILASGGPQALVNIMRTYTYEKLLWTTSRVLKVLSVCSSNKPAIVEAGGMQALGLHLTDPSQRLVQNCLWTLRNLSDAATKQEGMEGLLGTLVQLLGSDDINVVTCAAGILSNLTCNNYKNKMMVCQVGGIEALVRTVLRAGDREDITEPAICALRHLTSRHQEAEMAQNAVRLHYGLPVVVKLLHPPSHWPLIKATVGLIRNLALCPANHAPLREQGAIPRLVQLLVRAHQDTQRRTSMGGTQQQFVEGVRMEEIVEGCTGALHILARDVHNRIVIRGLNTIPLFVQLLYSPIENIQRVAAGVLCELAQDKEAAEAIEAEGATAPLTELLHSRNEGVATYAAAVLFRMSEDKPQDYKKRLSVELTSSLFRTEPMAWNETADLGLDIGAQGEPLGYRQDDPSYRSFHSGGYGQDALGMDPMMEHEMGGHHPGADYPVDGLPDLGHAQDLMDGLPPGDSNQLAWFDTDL
pKd: −log10 of the molar value.
Each entry below carries its recorded pKd.
Readout Kind: pKd

1) CCC(C)[C@@H](CN(CC(=O)N[C@@H](CC(C)C)CN(CC(=O)N[C@@H](CC(C)C)CN(CC(N)=O)S(=O)(=O)Cc1ccccc1)S(=O)(=O)CC(C)C)S(C)(=O)=O)NC(=O)CN(C[C@H](CCCNC(=N)N)NC(=O)CN(C[C@H](CC(C)C)NC(=O)CN(C[C@@H](NC(=O)CN(C[C@H](CC(C)C)NC(=O)CN(C[C@H](CCCNC(=N)N)NC(=O)CN(C[C@H](C)NC(=O)CN(C[C@H](CCC(=O)O)NC(C)=O)S(=O)(=O)CCN)S(C)(=O)=O)S(C)(=O)=O)S(=O)(=O)CCN)C(C)O)S(=O)(=O)CC(C)C)S(=O)(=O)CCN)S(=O)(=O)CC(C)C (stereo partly drawn) [Peptide 4] | 6.09
2) CCC(C)[C@@H](CN(CC(=O)N[C@@H](CC(C)C)CN(CC(=O)N[C@@H](C)CN(CC(N)=O)S(=O)(=O)Cc1ccccc1)S(=O)(=O)CC(C)C)S(C)(=O)=O)NC(=O)CN(C[C@H](CCCNC(=N)N)NC(=O)CN(C[C@H](CC(C)C)NC(=O)CN(C[C@@H](NC(=O)CN(C[C@H](CC(C)C)NC(=O)CN(C[C@H](CCCNC(=N)N)NC(=O)CN(C[C@H](CCCNC(=N)N)NC(=O)CN(C[C@H](CCC(=O)O)NC(C)=O)S(=O)(=O)CCN)S(C)(=O)=O)S(C)(=O)=O)S(=O)(=O)CCN)C(C)O)S(=O)(=O)CC(C)C)S(=O)(=O)CCN)S(=O)(=O)CC(C)C (stereo partly drawn) [Peptide 7] | 6.15

###

Biological target: β-catenin (Homo sapiens, UniProt P35222)
pKd: −log10 of the molar value.
Readout Kind: pKd

1. CCC(C)[C@@H](CN(CC(=O)N[C@@H](CC(C)C)CN(CC(=O)N[C@@H](CC(C)C)CN(CC(N)=O)S(=O)(=O)Cc1ccccc1)S(=O)(=O)CC(C)C)S(C)(=O)=O)NC(=O)CN(C[C@H](CCCNC(=N)N)NC(=O)CN(C[C@H](C)NC(=O)CN(C[C@@H](NC(=O)CN(C[C@H](CC(C)C)NC(=O)CN(C[C@H](CCCNC(=N)N)NC(=O)CN(C[C@H](CCCNC(=N)N)NC(=O)CN(C[C@H](CCC(=O)O)NC(C)=O)S(=O)(=O)CCN)S(C)(=O)=O)S(C)(=O)=O)S(=O)(=O)CCN)C(C)O)S(=O)(=O)CC(C)C)S(=O)(=O)CCN)S(=O)(=O)CC(C)C (stereo partly shown) [Peptide 5] | 5.71

###

Molecular target: β-catenin/BCL9 PPI (Homo sapiens, UniProt P35222)
Construct: 40 nM His6-tagged FL-β-catenin
Assay: AlphaScreen competitive inhibition assay of β-catenin/BCL9 PPI
Conditions: AlphaScreen, Ki derived from IC50 by method of Nikolovska-Coleska et al., mean ± SD
Readout Kind: Ki (µM)

1. CCC(C)[C@@H](CN(CC(=O)N[C@@H](CC(C)C)CN(CC(=O)N[C@@H](C)CN(CC(N)=O)S(=O)(=O)Cc1ccccc1)S(=O)(=O)CC(C)C)S(C)(=O)=O)NC(=O)CN(C[C@H](CCCNC(=N)N)NC(=O)CN(C[C@H](CC(C)C)NC(=O)CN(C[C@@H](NC(=O)CN(C[C@H](CC(C)C)NC(=O)CN(C[C@H](CCCNC(=N)N)NC(=O)CN(C[C@H](CCCNC(=N)N)NC(=O)CN(C[C@H](CCC(=O)O)NC(C)=O)S(=O)(=O)CCN)S(C)(=O)=O)S(C)(=O)=O)S(=O)(=O)CCN)C(C)O)S(=O)(=O)CC(C)C)S(=O)(=O)CCN)S(=O)(=O)CC(C)C (some centres unmarked) [Peptide 7] | 0.89
2. CCC(C)[C@@H](CN(CC(=O)N[C@@H](CC(C)C)CN(CC(=O)N[C@@H](CC(C)C)CN(CC(N)=O)S(=O)(=O)Cc1ccccc1)S(=O)(=O)CC(C)C)S(C)(=O)=O)NC(=O)CN(C[C@H](CCCNC(=N)N)NC(=O)CN(C[C@H](C)NC(=O)CN(C[C@@H](NC(=O)CN(C[C@H](CC(C)C)NC(=O)CN(C[C@H](CCCNC(=N)N)NC(=O)CN(C[C@H](CCCNC(=N)N)NC(=O)CN(C[C@H](CCC(=O)O)NC(C)=O)S(=O)(=O)CCN)S(C)(=O)=O)S(C)(=O)=O)S(=O)(=O)CCN)C(C)O)S(=O)(=O)CC(C)C)S(=O)(=O)CCN)S(=O)(=O)CC(C)C (some centres unmarked) [Peptide 5] | 2.43

###

Target: β-catenin (Homo sapiens)
Test: FP assay, binding of peptides with β-catenin (Kd)
Details: fluorescence polarization, 50 nM FITC labeled peptide, 1×PBS
pKd: −log10 of the molar value.
Readout Kind: pKd

1) Ac-SQEQLEHRERSLQTLRDIQRMLF-NH2 [Peptide 1, reference compound] | 6.01

###

Target: β-catenin/BCL9 PPI (Homo sapiens, UniProt P35222)
Construct: 40 nM His6-tagged FL-β-catenin
Experiment: AlphaScreen competitive inhibition assay of β-catenin/BCL9 PPI
Format: binding
Conditions: AlphaScreen, 5 nM biotinylated BCL9, 40 nM His6-tagged FL-β-catenin, mean ± SD
Readout Kind: IC50 (nM)

1) Ac-SQEQLEHRERSLQTLRDIQRMLF-NH2 [Peptide 1, reference compound] | 1280

###

System: A549 cell
Type: cell-based
Conditions: 72 h
pIC50: −log10 of the molar value.
Readout Kind: pIC50

1. Ac-SQEQLEHRERSLQTLRDIQRMLF-NH2 [Peptide 1, reference compound] | < 3.70

###

Sequence of the target: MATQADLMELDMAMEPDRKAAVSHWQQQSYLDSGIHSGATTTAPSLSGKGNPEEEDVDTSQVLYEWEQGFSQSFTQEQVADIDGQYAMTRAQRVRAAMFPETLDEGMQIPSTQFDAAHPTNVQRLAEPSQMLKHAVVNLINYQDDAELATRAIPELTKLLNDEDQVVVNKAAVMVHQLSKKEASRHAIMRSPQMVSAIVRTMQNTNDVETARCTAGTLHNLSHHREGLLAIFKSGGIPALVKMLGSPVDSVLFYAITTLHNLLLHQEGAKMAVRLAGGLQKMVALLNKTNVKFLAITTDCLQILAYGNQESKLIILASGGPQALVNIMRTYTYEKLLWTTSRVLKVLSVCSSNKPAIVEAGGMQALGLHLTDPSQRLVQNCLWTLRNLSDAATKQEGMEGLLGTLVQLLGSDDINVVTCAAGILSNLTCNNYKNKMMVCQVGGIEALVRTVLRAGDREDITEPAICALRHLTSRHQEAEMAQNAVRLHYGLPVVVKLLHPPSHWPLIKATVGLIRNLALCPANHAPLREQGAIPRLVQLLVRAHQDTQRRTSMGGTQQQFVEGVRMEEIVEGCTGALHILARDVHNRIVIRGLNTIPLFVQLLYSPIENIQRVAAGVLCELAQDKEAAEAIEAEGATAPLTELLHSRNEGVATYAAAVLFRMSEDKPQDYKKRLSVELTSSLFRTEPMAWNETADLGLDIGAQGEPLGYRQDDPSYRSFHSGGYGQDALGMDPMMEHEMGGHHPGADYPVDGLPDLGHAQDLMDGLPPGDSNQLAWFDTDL
pKd: −log10 of the molar value.
Readout Kind: pKd

1. CCC(C)[C@@H](CN(CC(=O)N[C@@H](CC(C)C)CN(CC(=O)N[C@@H](CC(C)C)CN(CC(N)=O)S(=O)(=O)Cc1ccccc1)S(=O)(=O)CC(C)C)S(C)(=O)=O)NC(=O)CN(C[C@H](CCCNC(=N)N)NC(=O)CN(C[C@H](CC(C)C)NC(=O)CN(C[C@@H](NC(=O)CN(C[C@H](CC(C)C)NC(=O)CN(C[C@H](CCCNC(=N)N)NC(=O)CN(C[C@H](CCCNC(=N)N)NC(=O)CN(C[C@H](CCC(=O)O)NC(C)=O)S(=O)(=O)CCN)S(C)(=O)=O)S(C)(=O)=O)S(=O)(=O)CCN)C(C)O)S(=O)(=O)CC(C)C)S(=O)(=O)CCN)S(C)(=O)=O (stereo partly shown) [Peptide 8] | 5.41
